- assay comment: M. tuberculosis H37Rv growth inhibitors, H37Rv strain (AID 1626);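 further: bacteria incubated seven days before Alamar blue readout; 0% = bacteria only wells and 100% = bacteria with antibiotic wells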
- condition context: active compounds read high, concentration not given here
About 2,000 (0.91%) of roughly 220,000 compounds were called active. Not shown: some 2% with an inconclusive outcome. The list is a sample of the results. Potency and affinity values are given separately.
# maps each entry to its inhibition
Your answer should be a plain number; it is taken to be in %.

Look over these answered cases.
molecule | unit name | inhibition
COc1cc2nc(CN(C)Cc3nc4ccccc4c(=O)[nH]3)[nH]c(=O)c2cc1OC | % | -3.41
c1ccc(-c2cnc(SCCN3CCOCC3)n2CC2CCCO2)cc1 (stereo not drawn) | % | 4.09
CC(=O)C1=C(O)C(=O)N(CCc2c[nH]c3ccccc23)C1c1cccc(O)c1 (stereo not drawn) | % | 1.15
COc1ccccc1C(=O)C1CCCN(C(=O)c2snnc2C)C1 (stereo not drawn) | % | -0.23
CCCS(=O)(=O)N1CCN(Cc2ccc([N+](=O)[O-])cc2)CC1 | % | 5.19

For the molecule CC1CCC(C(C)C)C(OC(=O)Cn2nnc3c(cnn3-c3ccccc3)c2=O)C1 (stereo not drawn) , report inhibition.
1.77

For the molecule CC1CCC(C(C)C)C(OC(=O)COC(=O)c2ccccc2N)C1 (stereo not drawn) , report inhibition.
6.07

For the molecule O=C(CCC(=O)c1cccs1)OCc1nc2ccccc2s1 , report inhibition.
-8.64

For the molecule Cc1cccc(C)c1N=Cc1c(O)n(-c2nccs2)c(=O)c2ccccc12 , report inhibition.
2.79

For the molecule Cc1ccc(/C=C/C(=O)NCc2ccncc2)cc1 , report inhibition.
7.66

For the molecule CN(CC(=O)Nc1ccc(C#N)cc1)Cc1ccc(Cl)c(Cl)c1 , report inhibition.
11.2

For the molecule CC1(c2nnc(-c3ccccc3)o2)CC(c2ccc(F)cc2)=NO1 (stereo not drawn) , report inhibition.
-2.41
